Parameter: growth. Scope: all listed entries.
tested on: OVCAR-4 ovarian; test: NCI-60 one-dose screen, 48 h (100 = growth as untreated, 0 = no growth, -100 = all killed); details: 10 µM
This is part of a sample that, as a whole, favours compounds with a hit. Of some 83,000 tested, about 20% had one in any assay.
Could you give me the number in %? Just the number is fine.

See these solved cases before continuing.
Cc1cc(O)c(C(C)C)cc1Cl = 109
O=C(/C=C/c1ccccn1)c1ccccc1 = 47.2
CCCC1CCC(=C2C(=O)CCC2=O)O1 (stereo unspecified) = 98.2
CC1=CC(C)=Nc2ccc(Cl)cc2N1 = 110
O=C1NC(=O)c2cc([N+](=O)[O-])ccc21 = 117

The record that follows has no growth shown yet.
# returns recorded growth (system: OVCAR-4 ovarian) for Cc1nc(N=C(N)N)nc2ccc3ccccc3c12
-3.65

====

test system: CCRF-CEM leukemia; experiment: NCI-60 one-dose screen, 48 h (100 = growth as untreated, 0 = no growth, -100 = all killed); details: 10 µM
This is part of a sample that, as a whole, favours compounds with a hit. Of some 83,000 tested, about 20% had one in any assay.
The label Yes is reserved for growth strictly under 50%; No covers values equal to or above it.

Example entries and their recorded answers appear below.
CC(=O)OCC(OC(C)=O)C(OC(C)=O)C(OC(C)=O)C(OC(C)=O)C(/C=N/Nc1ccccc1)=N/Nc1ccccc1 (stereo unspecified) = Yes
COc1c(O)cc2oc3cc(O)c(CC=C(C)C)c(O)c3c(=O)c2c1CC=C(C)C = Yes
CCN1/C(=C/C=C/C=C/c2sc3ccccc3[n+]2CC)Sc2ccccc21 = Yes
COC1OCC(O)C(O)C1O (stereo unspecified) = No
COc1cccc2c1C(=O)c1c(O)c3c(c(O)c1C2=O)C[C@@](O)(C(=O)CO)C[C@@H]3OC1CC(N)C(O)C(C)O1 (stereo partly specified) = Yes
O=C1C=CC(=CC=C2C=CN(CCCCCCCCCCCO)C=C2)C=C1 = Yes

Item Cc1cc(O)c(C(C)C)cc1Cl : growth beneath 50%, strictly?
No

====

Tested on: OVCAR-5 ovarian
Assay: NCI-60 one-dose screen, 48 h (100 = growth as untreated, 0 = no growth, -100 = all killed)
Conditions: 10 µM
Description: Growth inhibition of the OVCAR-5 human tumor cell line is measured as a screen for anti-cancer activity. Cells are grown in 96 well plates and exposed to the test compound for 48 hours. Compounds are tested at a single concentration, which is 10^-5 M for most compounds. The reported endpoint is percent growth (GI% or GIPRCNT), where numbers from 0 - 100% represent growth inhibition, and numbers from -100% - 0 represent cell death. For example, a value of 40 represents 60% growth inhibition. […]
Compounds without any hit were thinned out: in the full panel of roughly 83,000, 20% have a hit. Calls of active or inactive are those of the source. Rule for the calls: active = growth percent below 10; inactive = the rest.
assay-metric: growth

# returns recorded growth (system: OVCAR-5 ovarian) for CCC(C)(C)c1cc(O)c(C(C)(C)CC)cc1O
49.2% (inactive)

# returns recorded growth (system: OVCAR-5 ovarian) for NC1=C(Cl)C(=O)c2ccccc2C1=O
111% (inactive)

# returns recorded growth (system: OVCAR-5 ovarian) for CO[C@H](C(=O)[C@@H](O)[C@@H](C)O)[C@@H]1Cc2cc3cc(OC4CC(OC5CC(O)C(O)C(C)O5)C(O)C(C)O4)c(C)c(O)c3c(O)c2C(=O)[C@H]1OC1CC(OC2CC(OC3CC(C)(O)C(O)C(C)O3)C(O)C(C)O2)C(O)C(C)O1 (stereo not given in full)
-54.9% (active)

# returns recorded growth (system: OVCAR-5 ovarian) for O=C(O)COc1ccc(OCC(=O)O)cc1
11% (inactive)

# returns recorded growth (system: OVCAR-5 ovarian) for Clc1cc(Cl)c(Cl)nn1
115% (inactive)

====

system: SK-MEL-5 melanoma; assay: NCI-60 one-dose screen, 48 h; details: 10 µM unless noted
The panel holds about 83,000 compounds, 20% with a hit somewhere; the sample as a whole holds those more often. Calls of active or inactive are those of the source. The calls were made as follows: active = growth percent below 10; inactive = the rest.
Outcomes you can answer with include only these: active, inactive

Example entries and their recorded answers appear below.
CCN(CC)c1ccc(NC(C(=O)c2ccccc2)c2ccccc2)cc1 (stereo unspecified) = inactive
CC(C)(C)CC(C)(C)c1ccc(OCCO)cc1 = inactive
Cc1cc(O)c(C(C)C)cc1Cl = inactive
O=C1NC(=O)c2cc([N+](=O)[O-])ccc21 = inactive
CCO/C=C1\SC(=S)N(c2cccc(O)c2)C1=O = inactive
CCCCCC(C)c1ccc(O)c(C)c1 (stereo unspecified) = inactive
CCCCCCCCCCSC(=N)N = inactive
CCC(C)(C)c1cc(O)c(C(C)(C)CC)cc1O = inactive
NC1=C(Cl)C(=O)c2ccccc2C1=O = active
CC(=O)OCC(OC(C)=O)C(OC(C)=O)C(OC(C)=O)C(OC(C)=O)C(/C=N/Nc1ccccc1)=N/Nc1ccccc1 (stereo unspecified) = inactive

Hi, do you know how CC(=O)Nc1cc(C)ccc1C came out in this test?
inactive

Hi, do you know how O=[N+]([O-])C1=C(c2ccccc2)SC=C(c2ccccc2)S1 came out in this test?
inactive

Hi, do you know how CCN1/C(=C/C=C/C=C/c2sc3ccccc3[n+]2CC)Sc2ccccc21 came out in this test?
active

Hi, do you know how NNc1c2ccccc2nc2ccccc12 came out in this test?
inactive

====

system: SN12C renal; assay: NCI-60 one-dose screen, 48 h (100 = growth as untreated, 0 = no growth, -100 = all killed); conditions: 10 µM
About 83,000 compounds went through this panel and 20% of them were active in at least one assay; those are over-represented in the sample as a whole.
The label true (1) is reserved for growth strictly under 90%; false (0) covers values equal to or above it.

Example entries and their recorded answers appear below.
CC(=O)OCC(OC(C)=O)C(OC(C)=O)C(OC(C)=O)C(OC(C)=O)C(/C=N/Nc1ccccc1)=N/Nc1ccccc1 (stereo unspecified) = true (1)
Clc1ccc(/C=C/c2ccccn2)c(Cl)c1 = false (0)
CCCCCCCCCCSC(=N)N = true (1)
Clc1cc(Cl)c(Cl)nn1 = false (0)

Next:
Item CC(C)(C)CC(C)(C)c1ccc(OCCO)cc1 : growth beneath 90%, strictly?
false (0)

====

test system: NCI-H23 lung; experiment: NCI-60 one-dose screen, 48 h (100 = growth as untreated, 0 = no growth, -100 = all killed); conditions: 10 µM
The panel holds about 83,000 compounds, 20% with a hit somewhere; the sample as a whole holds those more often.
Parameter: growth. Scope: all listed entries.
Could you give me the number in %? Just the number is fine.

See these solved cases before continuing.
CC(C)(C)CC(C)(C)c1ccc(OCCO)cc1 = 106
CCN(CC)c1ccc(NC(C(=O)c2ccccc2)c2ccccc2)cc1 (stereo unspecified) = 44.4
Cc1cc(NS(=O)(=O)c2ccc(N=Nc3cc(N=Nc4ccc(S(=O)(=O)Nc5cc(C)nc(C)n5)cc4)c4c(NC(=O)C(Cl)Cl)cccc4c3OC(=O)C(Cl)Cl)cc2)nc(C)n1 (tested in a mixture with another compound) = 107
O=C(O)COc1ccc(OCC(=O)O)cc1 = -0.769
Clc1cc(Cl)c(Cl)nn1 = 105

Reported growth, molecule CCO/C=C1\SC(=S)N(c2cccc(O)c2)C1=O : ____
106

Reported growth, molecule CCCCCCCCCCCCCCCCCCOCC(COP(=O)([O-])OCC[N+](C)(C)C)OC (stereo unspecified) : ____
89.1

Reported growth, molecule Oc1ccc(N=Nc2ccccn2)c(O)c1 : ____
29.2

Reported growth, molecule O=C(/C=C/c1cccnc1)c1ccccc1 : ____
96.6

Reported growth, molecule O=c1ccn(C2CC(O)C(COC(c3ccccc3)(c3ccccc3)c3ccccc3)O2)c(=O)[nH]1 (stereo unspecified) : ____
101

Reported growth, molecule COC1OCC(O)C(O)C1O (stereo unspecified) : ____
98.3

====

tested on: NCI-H322M lung; assay: NCI-60 one-dose screen, 48 h (100 = growth as untreated, 0 = no growth, -100 = all killed); conditions: 10 µM
This is part of a sample that, as a whole, favours compounds with a hit. Of some 83,000 tested, about 20% had one in any assay.
Criterion: growth meeting or surpassing 90%. Met: class 1. Not met: class 0.

Example entries and their recorded answers appear below.
OCC(O)C(O)C(O)C(/C=N/Nc1ccccc1)=N/Nc1ccccc1 (stereo unspecified) = class 0
NC1=C(Cl)C(=O)c2ccccc2C1=O = class 1
CCCCCCCCCCCCCCCCCCOCC(COP(=O)([O-])OCC[N+](C)(C)C)OC (stereo unspecified) = class 1

Say whether Cc1cc(O)c(C(C)C)cc1Cl shows growth of 90% or more.
class 1
